Target: T1, PF4/heparin complex (human PF4 complexed with heparin) (human, UniProt P02776 32-101)
T1 sequence: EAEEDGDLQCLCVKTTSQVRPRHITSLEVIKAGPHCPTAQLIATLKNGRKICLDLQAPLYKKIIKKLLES
Assay: cell-based or functional assay
QUANTITY MEASURED: % inhibition of 14C-serotonin release (SRA), HIT-Positive Patient #1 serum, scFv 75 µg/mL (%)
Answers are plain numbers, in %.

Illustrative cases are given below, each with its answer.
For Mutant C scFv, scFv(S50N, Y53H) (scFv, VL-linker-VH; histidine-tagged, from E. coli BL21; also called Mut C; not shown: histidine tag from the pADL-22c vector) scFv: DIQMIQSQKFMSTSVGDRVTVTCKASQNVGTNVAWYQQKPGQSPNALIYNASHRYSGVPDRFTGSGSGTDFTLTITNVQSEDLADYFCQQYNSYPLTFGTGTKLDLKGGGGSGGGGSGGGGSVQLQQSGAELVKPGASVKLSCKASGYTFTNYFIYWVKQRPGQGLEWIGEINPRNGDTDFNEKFESRATLTVDKSSSTAYMQLSSLTSEDSAIYYCTRSPYGNNYGFTYWGQGTLVTVSA , write its % inhibition of 14C-serotonin release (SRA), HIT-Positive Patient #1 serum, scFv 75 µg/mL. 22.2

For Wildtype scFv (KKO-derived single chain variable fragment) (scFv, VL-(G4S)3 linker-VH; expressed in E. coli BL21 from pADL-22c, purified on Ni-NTA as histidine-tagged scFv, about 28 kDa; also called WT; KKO-scFv; not shown: histidine tag from the pADL-22c vector) scFv: DIQMIQSQKFMSTSVGDRVTVTCKASQNVGTNVAWYQQKPGQSPNALIYSASYRYSGVPDRFTGSGSGTDFTLTITNVQSEDLADYFCQQYNSYPLTFGTGTKLDLKGGGGSGGGGSGGGGSVQLQQSGAELVKPGASVKLSCKASGYTFTNYFIYWVKQRPGQGLEWIGEINPRNGDTDFNEKFESRATLTVDKSSSTAYMQLSSLTSEDSAIYYCTRSPYGNNYGFTYWGQGTLVTVSA , write its % inhibition of 14C-serotonin release (SRA), HIT-Positive Patient #1 serum, scFv 75 µg/mL. 17.8

For Mutant D scFv, scFv(Y156H) (scFv, VL-linker-VH; histidine-tagged, from E. coli BL21; also called Mut D; not shown: histidine tag from the pADL-22c vector) scFv: DIQMIQSQKFMSTSVGDRVTVTCKASQNVGTNVAWYQQKPGQSPNALIYSASYRYSGVPDRFTGSGSGTDFTLTITNVQSEDLADYFCQQYNSYPLTFGTGTKLDLKGGGGSGGGGSGGGGSVQLQQSGAELVKPGASVKLSCKASGYTFTNYFIHWVKQRPGQGLEWIGEINPRNGDTDFNEKFESRATLTVDKSSSTAYMQLSSLTSEDSAIYYCTRSPYGNNYGFTYWGQGTLVTVSA , write its % inhibition of 14C-serotonin release (SRA), HIT-Positive Patient #1 serum, scFv 75 µg/mL. 94.4

For Mutant B scFv, scFv(R18K, N152K, D180N) (scFv, VL-linker-VH; histidine-tagged, from E. coli BL21; also called Mut B; not shown: histidine tag from the pADL-22c vector) scFv: DIQMIQSQKFMSTSVGDKVTVTCKASQNVGTNVAWYQQKPGQSPNALIYSASYRYSGVPDRFTGSGSGTDFTLTITNVQSEDLADYFCQQYNSYPLTFGTGTKLDLKGGGGSGGGGSGGGGSVQLQQSGAELVKPGASVKLSCKASGYTFTKYFIYWVKQRPGQGLEWIGEINPRNGDTNFNEKFESRATLTVDKSSSTAYMQLSSLTSEDSAIYYCTRSPYGNNYGFTYWGQGTLVTVSA , write its % inhibition of 14C-serotonin release (SRA), HIT-Positive Patient #1 serum, scFv 75 µg/mL. 97.8

Others:
For Mutant E scFv, scFv(Y156H, D180G, Q233P) (scFv, VL-linker-VH; histidine-tagged, from E. coli BL21; also called Mut E; not shown: histidine tag from the pADL-22c vector) scFv: DIQMIQSQKFMSTSVGDRVTVTCKASQNVGTNVAWYQQKPGQSPNALIYSASYRYSGVPDRFTGSGSGTDFTLTITNVQSEDLADYFCQQYNSYPLTFGTGTKLDLKGGGGSGGGGSGGGGSVQLQQSGAELVKPGASVKLSCKASGYTFTNYFIHWVKQRPGQGLEWIGEINPKNGDTGFNEKFESRATLTVDKSSSTAYMQLSSLTSEDSAIYYCTRSPYGNNYGFTYWGPGTLVTVSA , write its % inhibition of 14C-serotonin release (SRA), HIT-Positive Patient #1 serum, scFv 75 µg/mL. 25.6
